Listing: IC50 of selected compounds
Molecular target: UniProtKB Q02763
Sequence (Q02763 whole entry): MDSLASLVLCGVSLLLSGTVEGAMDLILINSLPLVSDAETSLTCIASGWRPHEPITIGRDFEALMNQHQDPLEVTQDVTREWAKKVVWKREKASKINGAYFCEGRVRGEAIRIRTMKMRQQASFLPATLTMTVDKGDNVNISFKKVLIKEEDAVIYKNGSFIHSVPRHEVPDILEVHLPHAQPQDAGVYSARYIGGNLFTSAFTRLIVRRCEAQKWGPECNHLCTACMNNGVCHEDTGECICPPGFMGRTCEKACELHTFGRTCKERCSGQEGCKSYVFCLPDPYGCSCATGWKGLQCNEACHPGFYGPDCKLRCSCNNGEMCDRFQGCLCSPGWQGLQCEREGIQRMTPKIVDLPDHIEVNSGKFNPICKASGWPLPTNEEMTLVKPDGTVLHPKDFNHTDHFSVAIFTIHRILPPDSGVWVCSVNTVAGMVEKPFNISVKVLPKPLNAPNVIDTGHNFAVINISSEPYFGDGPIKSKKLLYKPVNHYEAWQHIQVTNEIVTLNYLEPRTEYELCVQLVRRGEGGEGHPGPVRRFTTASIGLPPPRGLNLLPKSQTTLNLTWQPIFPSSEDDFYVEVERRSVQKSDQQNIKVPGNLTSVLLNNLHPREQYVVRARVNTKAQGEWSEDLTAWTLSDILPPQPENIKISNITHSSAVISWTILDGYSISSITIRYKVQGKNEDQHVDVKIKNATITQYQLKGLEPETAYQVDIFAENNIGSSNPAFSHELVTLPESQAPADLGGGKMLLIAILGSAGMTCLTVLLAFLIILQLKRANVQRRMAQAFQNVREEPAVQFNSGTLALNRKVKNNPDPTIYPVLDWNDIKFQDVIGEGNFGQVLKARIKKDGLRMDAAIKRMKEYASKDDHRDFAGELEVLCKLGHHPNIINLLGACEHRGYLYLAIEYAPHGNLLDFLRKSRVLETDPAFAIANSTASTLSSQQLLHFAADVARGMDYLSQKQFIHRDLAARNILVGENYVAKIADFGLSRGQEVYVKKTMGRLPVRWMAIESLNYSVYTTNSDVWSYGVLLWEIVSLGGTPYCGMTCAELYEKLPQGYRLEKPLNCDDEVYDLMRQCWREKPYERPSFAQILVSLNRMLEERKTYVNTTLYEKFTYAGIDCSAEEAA
Assay: Inhibition of Tie2 autophosphorylation by cell based assay

| SMI | STUDY SYSTEM | IC50 / nM |
| --- | --- | --- |
| O=C(Nc1cccc(-c2cn3ccnc3c(NCc3ccncc3)n2)c1)Nc1cc(C(F)(F)F)ccc1F | UniProtKB Q02763 | 100 |
| COc1ccc(C(F)(F)F)cc1NC(=O)Nc1cccc(-c2cn3ccnc3c(NCc3ccncc3)n2)c1 | UniProtKB Q02763 | 50 |
| COc1ccc(Br)cc1NC(=O)Nc1cccc(-c2cn3ccnc3c(NCc3ccncc3)n2)c1 | UniProtKB Q02763 | 250 |
